FYI, the data here is from paper PMC7942396.

Assay: in vitro
Conditions: African green monkey
Structures can show the parent of a compound that is named as a salt.
Lab note: cut-off is 3 µM. Strictly less in CC50 is TRUE. Exactly 3 µM or more is FALSE.

Prompt: Field: below-cutoff. Rule: recorded CC50 strictly less than 3 µM. Subject: OCCOc1ccc(/C(=C(/CCCl)c2ccccc2)c2ccccc2)cc1
Completion: FALSE

Prompt: Field: below-cutoff. Rule: recorded CC50 strictly less than 3 µM. Subject: CC#C[C@@H](CC(=O)O)c1ccc(OCc2cccc(-c3ccc(C(F)(F)F)cc3)c2)cc1
Completion: FALSE

Prompt: Field: below-cutoff. Rule: recorded CC50 strictly less than 3 µM. Subject: CC(=O)OC[C@]12C[C@H](OC(=O)CC(C)C)C(C)=C[C@H]1O[C@@H]1[C@H](O)[C@@H](O)[C@@]2(C)[C@]12CO2
Completion: TRUE

Prompt: Field: below-cutoff. Rule: recorded CC50 strictly less than 3 µM. Subject: COC(=O)[C@]1(C)CC[C@]2(C)CC[C@]3(C)C4=CC=C5C(=CC(=O)C(O)=C5C)[C@]4(C)CC[C@@]3(C)[C@@H]2C1 [Pristimerin, reference compound]
Completion: TRUE

Prompt: Field: below-cutoff. Rule: recorded CC50 strictly less than 3 µM. Subject: S=C(NCc1ccc2c(c1)OCO2)N1CCN(c2ncnc3c2oc2ccccc23)CC1
Completion: FALSE

Prompt: Field: below-cutoff. Rule: recorded CC50 strictly less than 3 µM. Subject: CC1=C(c2ccc(O)cc2)[C@H](c2ccc(OCCN3CCCCC3)cc2)Oc2cc(O)ccc21
Completion: FALSE

Prompt: Field: below-cutoff. Rule: recorded CC50 strictly less than 3 µM. Subject: CC(=O)O[C@@H]1C[C@H](O)[C@@]23CO[C@@H](O)[C@]1(C)[C@@H]2C[C@@H](O)[C@]1(C)[C@@H]3C(=O)[C@H](OC(C)=O)[C@@]2(C)[C@H](c3ccoc3)C[C@H]3O[C@]321
Completion: TRUE

Prompt: Field: below-cutoff. Rule: recorded CC50 strictly less than 3 µM. Subject: COC(=O)C1=C(C)NC(C)=C(C(=O)OCCN(C)Cc2ccccc2)C1c1cccc([N+](=O)[O-])c1 (centres unmarked)
Completion: FALSE

Prompt: Field: below-cutoff. Rule: recorded CC50 strictly less than 3 µM. Subject: Cc1c(O)cccc1C(=O)N[C@@H](CSc1ccccc1)[C@H](O)CN1C[C@H]2CCCC[C@H]2C[C@H]1C(=O)NC(C)(C)C [Nelfinavir Mesylate]
Completion: FALSE

Prompt: Field: below-cutoff. Rule: recorded CC50 strictly less than 3 µM. Subject: CCCc1cc(C)[nH]c(=O)c1CNC(=O)c1cc(-c2ccnc(N3CCN(C)CC3)c2)cc2c1cnn2C(C)C
Completion: FALSE

Prompt: Field: below-cutoff. Rule: recorded CC50 strictly less than 3 µM. Subject: CC(CN(C)C)CN1c2ccccc2CCc2ccccc21 (centres unmarked) [Trimipramine maleate]
Completion: FALSE

Prompt: Field: below-cutoff. Rule: recorded CC50 strictly less than 3 µM. Subject: CCOC(=O)c1c(CSc2ccccc2)n(C)c2cc(Br)c(O)c(CN(C)C)c12
Completion: FALSE

Prompt: Field: below-cutoff. Rule: recorded CC50 strictly less than 3 µM. Subject: O[C@H]1[C@H]2c3cc4c(cc3CN3CCC(=C[C@@H]1O)[C@H]23)OCO4 [Lycorine hydrochloride]
Completion: FALSE

Prompt: Field: below-cutoff. Rule: recorded CC50 strictly less than 3 µM. Subject: CCn1c(-c2nonc2N)nc2cnc(Oc3cccc(NC(=O)c4ccc(OCCN5CCOCC5)cc4)c3)cc21 [GSK-269962A]
Completion: TRUE

###

Test system: Vero E6 cells
Settings: cytotoxicity counter-assay, Vero E6 cells without virus
Lab note: cut-off is 30%. Strictly less in % Cytotox is T. Exactly 30% or more is F.

Prompt: Field: below-cutoff. Rule: recorded % Cytotox strictly less than 30%. Subject: COc1cc2nc(N3CCCCC3)nc(NC3CCN(C)CC3)c2cc1OC
Completion: F

Prompt: Field: below-cutoff. Rule: recorded % Cytotox strictly less than 30%. Subject: CCC(C)C(=O)OC12C(OC(C)=O)C(C)C3(O)C(C=C(CO)CC4(O)C(=O)C(C)=CC43)C1C2(C)C (centres unmarked)
Completion: T

Prompt: Field: below-cutoff. Rule: recorded % Cytotox strictly less than 30%. Subject: C/C=C(\C)C(=O)OC1C(C)C2(O)C3C=C(C)C(=O)C3CC(CO)=CC2C2C(C)(C)C12OC(C)=O (centres unmarked)
Completion: T

Prompt: Field: below-cutoff. Rule: recorded % Cytotox strictly less than 30%. Subject: Cn1cc(-c2ccncc2)c(-c2ccc(OCc3ccc4ccccc4n3)cc2)n1
Completion: F

Prompt: Field: below-cutoff. Rule: recorded % Cytotox strictly less than 30%. Subject: CCOC(=O)N[C@@H]1CC[C@@H]2[C@@H](C1)C[C@H]1C(=O)O[C@H](C)[C@H]1[C@H]2/C=C/c1ccc(-c2cccc(F)c2)cn1.O=S(=O)(O)O [Vorapaxar Sulfate]
Completion: F

Prompt: Field: below-cutoff. Rule: recorded % Cytotox strictly less than 30%. Subject: O=C(O)c1ccc(CCCc2ccc(OCCc3ccc(F)cc3)cc2)o1
Completion: F

Prompt: Field: below-cutoff. Rule: recorded % Cytotox strictly less than 30%. Subject: COc1cc(N2CCN(C)CC2)ccc1Nc1ncc2c(n1)N(C)c1ccccc1C(=O)N2
Completion: F

Prompt: Field: below-cutoff. Rule: recorded % Cytotox strictly less than 30%. Subject: O=C(N[C@@H](c1ccccc1)[C@@H]1CCCCN1)c1cccc(C(F)(F)F)c1Cl
Completion: T

###

Test system: Vero E6 cells
Conditions: read-out: Cytotox CC50; cytotoxicity counter-assay, Vero E6 cells without virus
Structures can show the parent of a compound that is named as a salt. Where a SMILES comes first, the peptide text is derived from it. [ ]: non-standard residue; d: D form. Nle = CCCC[C@H](N)C(=O)O
Test readout: log10(CC50) (log10 of the value in µM)
Could you please treat all values as log10 of CC50 in µM?

Field log10(CC50) (entry Cc1cccc2c1CC[C@H](CN1CCC(c3c(Cl)cccc3Cl)CC1)C[C@@H]2O.Cl [SB 612111 hydrochloride] ) reads 1.10

Field log10(CC50) (entry COc1ccc(-c2cc(C(O)C3CCCCN3)c3ccccc3n2)cc1.Cl.Cl (centres unmarked) ) reads 1.00

Field log10(CC50) (entry CCCC[C@@H](C=O)NC(=O)[C@H](CC(C)C)NC(=O)[C@H](CC(C)C)NC(C)=O [Calpain Inhibitor I, ALLN, reference compound] (Ac-Leu-Leu-[Nle]-aldehyde) ) reads 0.05

Field log10(CC50) (entry CC(C)CCC[C@@H](C)[C@H]1CC[C@H]2[C@@H]3CC=C4C[C@@H](OC(=O)NCCN(C)C)CC[C@]4(C)[C@H]3CC[C@]12C.Cl ) reads 1.00

Field log10(CC50) (entry Cl.O=C1Nc2nc(-c3c(O)cccc3OCC3CC3)cc([C@@H]3CCCNC3)c2CO1 [Bay-65-1942 hydrochloride] ) reads 1.05

Field log10(CC50) (entry NC(=O)c1ccccc1Nc1ccnc(Nc2cccc(O)c2)n1 ) reads 0.00

Field log10(CC50) (entry O=S(=O)(c1cccc2c(I)cccc12)N1CCCNCC1 ) reads 1.30

Field log10(CC50) (entry CC(=O)OC1[C@H]2[C@@H](C[C@@H](C)[C@@H]3C=CC(=O)[C@@]13C)OC(=O)[C@@H]2C (some centres unmarked) ) reads 1.05

Field log10(CC50) (entry C[C@@H]1O[C@@H](O[C@H]2[C@H](OC(=O)[C@]34CCC(C)(C)C[C@H]3C3=CCC5[C@@]6(C)C[C@H](O)[C@H](O[C@@H]7O[C@H](CO[C@@H]8OC[C@H](O)[C@H](O)[C@H]8O)[C@@H](O)[C@H](O)[C@H]7O)C(C)(C)C6CC[C@@]5(C)[C@]3(C)C[C@H]4O)OC[C@@H](O)[C@@H]2O)[C@H](O)[C@H](O[C@@H]2OC[C@](O)(CO)[C@H]2O)[C@H]1O[C@@H]1OC[C@H](O)[C@H](O[C@@H]2OC[C@@H](O)[C@H](O)[C@H]2O)[C@H]1O (some centres unmarked) ) reads 0.38

Field log10(CC50) (entry COc1cc2c3cc1Oc1c(OC)c(OC)cc4c1[C@@H](Cc1ccc(O)c(c1)Oc1ccc(cc1)C[C@@H]3N(C)CC2)N(C)CC4 [Berbamine dihydrochloride] ) reads 1.05

Field log10(CC50) (entry CC(C)C[C@H]1C(=O)O[C@H](Cc2ccc(N3CCOCC3)cc2)C(=O)N(C)[C@@H](CC(C)C)C(=O)O[C@H](C)C(=O)N(C)[C@@H](CC(C)C)C(=O)O[C@H](Cc2ccc(N3CCOCC3)cc2)C(=O)N(C)[C@@H](CC(C)C)C(=O)O[C@H](C)C(=O)N1C [Emodepside] ) reads 0.95
